- ASSAY SUMMARY: Liver microsome metabolism, human
- Format: in vitro ADME
- EXPERIMENTAL PARAMETERS: liver microsomes, read-out: t1/2 by liver microsome metabolism
QUANTITY NAME: half-life (min)

- COMPOUND: "CN1CCC(COc2cnc(-c3cccc(Cn4nc(-c5cccc(C#N)c5)ccc4=O)c3)nc2)CC1 [Tepotinib, reference compound]"
  EXPERIMENTAL RESULT: 48.3

* * *

- ASSAY SUMMARY: Liver microsome metabolism, rat
- Format: in vitro ADME
- EXPERIMENTAL PARAMETERS: liver microsomes, read-out: t1/2 by liver microsome metabolism

- COMPOUND: "CN1CCC(COc2cnc(-c3cccc(Cn4nc(-c5cccc(C#N)c5)ccc4=O)c3)nc2)CC1 [Tepotinib, reference compound]"
  half-life, min: 10.5
